protocol.text: AUC (0 to t) in Sprague-Dawley rat at 2 mg/kg, iv measured for 5760 mins by LC-MS/MS analysis
Type: ADME, organism-based
Set-up: dose 2 mg/kg, time 5760 min, route iv
test.conditions: in vivo
measured.metric: AUC(0-t) at 96 h

>>> recorded_value("O=C(O)C1(c2ccc(-c3cc(Cl)cc(Cl)c3)c(F)c2)CC1")
"552 ng·h/mL"

###

target.under.test: Aldo-keto reductase family 1 member C2 (Homo sapiens, UniProt P52895)
Sequence (P52895 whole entry): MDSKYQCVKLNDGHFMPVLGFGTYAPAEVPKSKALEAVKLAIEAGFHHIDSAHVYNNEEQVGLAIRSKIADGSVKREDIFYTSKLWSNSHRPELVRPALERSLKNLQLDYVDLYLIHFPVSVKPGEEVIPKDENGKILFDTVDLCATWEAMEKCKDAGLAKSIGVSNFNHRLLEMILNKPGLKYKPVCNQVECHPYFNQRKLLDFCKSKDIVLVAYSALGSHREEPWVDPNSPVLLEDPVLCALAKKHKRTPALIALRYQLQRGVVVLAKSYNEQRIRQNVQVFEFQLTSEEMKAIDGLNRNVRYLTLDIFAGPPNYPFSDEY
protocol.text: Inhibition of human recombinant AKR1C2 transfected in Escherichia coli BL21 (DE3) pLysS competent cells using S-tetralol as substrate assessed as inhibition of NADP+ dependent substrate oxidation incubated for 10 mins by fluorescence microplate reader assay
Catalogue of compounds with associated IC50
measured.metric: IC50 (nM)

>>> recorded_value("Cc1cc(C(C)C(=O)O)ccc1-c1cccc([N+](=O)[O-])c1 (racemic)")
570
>>> recorded_value("CC(C(=O)O)c1ccc(-c2ccc3ccccc3c2)c(F)c1 (racemic)")
1430
>>> recorded_value("CCC(C(=O)O)c1ccc(-c2cccc(OC)c2)c(F)c1 (racemic)")
810
>>> recorded_value("CCC(C(=O)O)c1ccc(-c2cc(C)cc(C)c2)c(F)c1 (racemic)")
710
>>> recorded_value("CC(C(=O)O)c1ccc(-c2ccncc2)c(F)c1 (racemic)")
2380
